Kindly supply the reported TGI values for the records listed here.
System: TK-10 renal
Assay: NCI tumour cell line growth inhibition, 48 h
One number for each entry, in µM.

Below are worked cases with known answers.
O=C(C1=CCC2(CC1)OCCO2)N(Cc1ccccc1)c1ccccc1I | 44.5
O=[N+]([O-])/C(Cl)=C(\Sc1ccccc1)C(Cl)=C(Cl)Cl | 3.21

Here are 3 molecules. What values of TGI were reported for them?
1. NC(N)=N/N=C/c1c(-c2ccc(Cl)c(Cl)c2Cl)nc2sccn12
2. Cc1cc2cc(Oc3ccnc(Nc4cccc(CS(=O)(=O)NCCN(C)C)c4)n3)ccc2[nH]1
3. CN1CCN(c2ccc(NC3=C(Cl)C(=O)c4ncccc4C3=O)cc2C(F)(F)F)CC1

Response:
1: 2.7; 2: 25.3; 3: 3.45

---

System: SNB-19 CNS
Test: NCI tumour cell line growth inhibition, 48 h
Assignment: determine reported TGI for the given compounds.

Answered examples (3):
CCCCC/C=C1\CCC(CN2CCOCC2)C1=O (stereo unspecified) | 32.4 µM
O=c1[nH]ncc2[nH]c3c(c12)CCCc1ccccc1-3 | > 100 µM
C#Cc1cccc(N2C(=O)CC(=P(c3ccccc3)(c3ccccc3)c3ccccc3)C2=O)c1 | > 100 µM

Provide each entry's TGI from the list below.
1. O=c1c2cc(-c3ccccc3)sc2nc2sc(-c3ccccc3)nn12
2. C/C(=C\c1ccccc1)C(O)S(=O)(=O)O (stereo unspecified)
3. CCC1N2CCCCC2[C@@H]2c3[nH]c4ccccc4c3CCN12 (stereo partly specified)
4. CC1=CC(=O)c2cccc(O)c2C1=O
5. CCCN(CCC)c1ccc(C=O)c(OC)c1
6. Cc1ccc2nc(NC(=O)CSC(=S)N3CCN(Cc4ccccc4)CC3)sc2c1
7. N[C@H]1CCc2c1nc1c(c2-c2ccccc2)CC[C@@H]1N
8. C=CCCC12CCCC(=O)C1Sc1ccc3ccccc3c12 (stereo unspecified)

Response:
1. > 100 µM
2. > 100 µM
3. > 100 µM
4. 17.4 µM
5. > 100 µM
6. > 100 µM
7. > 100 µM
8. 96 µM

For each of the compounds below, state TGI.
1. COc1cc([C@@H]2c3cc4c(cc3[C@@H](NC(=O)c3ccc(C(C)=O)cc3)C3COC(=O)[C@@H]32)OCO4)cc(OC)c1O (stereo partly specified)
2. COC(=O)[C@@H]1C[C@H]2[C@H](c3ccccc3Br)[C@@H](OC(C)=O)[C@@H](OCc3ccccc3)ON2O1
3. c1ccc(CN2CCC3(CC2)ONC2=NCCN23)cc1
4. COC(=O)/C=C\C1C(C(=O)OC)C2(C(=O)OC)CCC1(C(=O)OC)N2 (stereo unspecified)
5. COC(=O)c1cc(Cl)ccc1NC(=O)C1CCCCC1
6. CN(C)c1ncc(-c2c[nH]c3ccccc23)nc1-c1c[nH]c2ccccc12
7. COC(=O)/C1=C/C2CC(/C=C(/c3ccccc3)C(=O)O1)C2

Response:
1. > 100 µM
2. > 100 µM
3. > 100 µM
4. 23.8 µM
5. > 100 µM
6. 14.8 µM
7. > 100 µM

Give TGI for all compounds that follow.
1. O=C(CN1CCOCC1)NC1=Nc2ncccc2C(=O)NN1
2. C/C=C1/CN2CC[C@@H]3c4ccccc4N4[C@H](C(=O)OC)[C@H]1C[C@H]2[C@]34/C=C/C1=COC[C@@H]2[C@H]1C[C@H]1c3c(c4ccccc4n3C)C[C@@H]2N1C
3. Cc1cc(C)c(S(=O)(=O)Oc2ccccc2[N+](=O)[O-])c(C)c1

Response:
["> 10 µM", "7.39 µM", "> 100 µM"]
